- test target: human CD3 ed (human, UniProt P07766 23-126; P04234 22-105, limits assumed)
- Sequence (P07766 23-126 limits assumed, chain 1 of 2): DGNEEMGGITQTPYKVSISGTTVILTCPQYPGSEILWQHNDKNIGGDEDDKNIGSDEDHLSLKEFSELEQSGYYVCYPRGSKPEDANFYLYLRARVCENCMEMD
- Sequence (P04234 22-105 limits assumed, chain 2 of 2): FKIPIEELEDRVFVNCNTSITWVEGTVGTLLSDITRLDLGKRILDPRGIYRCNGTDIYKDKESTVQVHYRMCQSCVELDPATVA
- protocol notes: SPR Biacore T200, IgG captured on protein A, 25 C;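 note: antigens diluted in ACES running buffer at pH 7.4 were flowed over antibodies held on a CM3 chip bearing amine-coupled protein A, with buffer alone serving as blank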
pKd reference
When answering, recall that pKd equals minus log10 of the concentration in mol/L, and write that number alone.

>  <binder>
dBBDu183/L067 (antibody, V domains shown, IgG format; constant regions not specified) VH: QVQLVESGGGLVQPGRSLRLSCAASGFTFSNAWMHWVRQAPGKGLEWVAQIKDKGNAYAAYYAPSVKGRFTISRDDSKNSIYLQMNSLKTEDTAVYYCHYVHYASASTVLPAFGVDAWGQGTTVTVSS VL: DIVMTQSPLSLPVTPGEPASISCQSSESLVHVNRHTYLHWYQQKPGQAPRLLIYKVYNRFPGVPDRFSGSGSGTDFTLKISRVEAEDVGVYYCAQGTSVPFTFGQGTKLEIK

>  <pKd>
6.66

$$$$
>  <binder>
dBBDu167/L091 (antibody, V domains shown, IgG format; constant regions not specified) VH: QVQLVESGGGLVQPGRSLRLSCAASGFTFSNAWMHWVRQAPGKGLEWVAQIKDKGNLYAAYYAPSVKGRFTISRDDSKNSIYLQMNSLKTEDTAVYYCHYVHYASAGGGLPGFGVDAWGQGTTVTVSS VL: DIVMTQSPLSLPVTPGEPASISCSASESLLHNNRHTYLHWYQQKPGQAPRLLIYRVSNRFNGVPDRFSGSGSGTDFTLKISRVEAEDVGVYYCGQGTQVPFTFGQGTKLEIK

>  <pKd>
6.38

$$$$

Please find the next binder below.
Form field: reported pKd of dBBDu183/L072 (antibody, V domains shown, IgG format; also called H183L072) VH: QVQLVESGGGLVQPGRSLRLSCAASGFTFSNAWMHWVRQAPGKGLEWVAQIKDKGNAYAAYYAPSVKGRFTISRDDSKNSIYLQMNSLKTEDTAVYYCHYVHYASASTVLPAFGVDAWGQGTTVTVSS VL: DIVMTQSPLSLPVTPGEPASISCQASQELVHMNRNTYLHWYQQKPGQAPRLLIYKVSNRFPGVPDRFSGSGSGTDFTLKISRVEAEDVGVYYCAQGTSVPFTFGQGTKLEIK 6.66
